Assay: Antiglycation activity assessed as inhibition of BSA-derived advance glycated end product formation after 9 days by spectrophotometry
Format: physicochemical
Conditions: read-out: IC50
pIC50: −log10 of the molar value.
In this section, each of the molecules is paired with its reported pIC50.

| compound | pIC50 |
| --- | --- |
| O=C1Nc2c(Cl)ccc(Cl)c2/C1=N/N=C/c1ccc2ccccc2c1 | 3.38 |
| CCOc1ccccc1/C=N/N=C1\C(=O)Nc2ccccc21 | 3.38 |
| O=C1Nc2ccccc2/C1=N/N=C/c1ccc(O)cc1 | 3.50 |
| COc1ccccc1/C=N/N=C1\C(=O)Nc2ccccc21 | 3.34 |
| O=C1Nc2ccccc2/C1=N/N=C/c1cccc(O)c1 | 3.20 |
| COc1ccc(/C=N/N=C2\C(=O)Nc3c(Cl)ccc(Cl)c32)cc1OC | 3.44 |
| O=C1Nc2ccccc2/C1=N/N=C/c1cccc(Cl)c1 | 3.51 |
| O=C1Nc2ccccc2/C1=N/N=C/c1ccccc1F | 3.44 |
